Where these numbers come from: ChEMBL document CHEMBL3351838

The compounds listed here are annotated with their pIC50.
biological target: 17-beta-hydroxysteroid dehydrogenase type 2 (Homo sapiens, UniProt P37059); assay: Inhibition of 17beta-HSD2 (unknown origin) expressed in intact HEK293 cells; type: cell-based
Sequence (P37059 whole entry): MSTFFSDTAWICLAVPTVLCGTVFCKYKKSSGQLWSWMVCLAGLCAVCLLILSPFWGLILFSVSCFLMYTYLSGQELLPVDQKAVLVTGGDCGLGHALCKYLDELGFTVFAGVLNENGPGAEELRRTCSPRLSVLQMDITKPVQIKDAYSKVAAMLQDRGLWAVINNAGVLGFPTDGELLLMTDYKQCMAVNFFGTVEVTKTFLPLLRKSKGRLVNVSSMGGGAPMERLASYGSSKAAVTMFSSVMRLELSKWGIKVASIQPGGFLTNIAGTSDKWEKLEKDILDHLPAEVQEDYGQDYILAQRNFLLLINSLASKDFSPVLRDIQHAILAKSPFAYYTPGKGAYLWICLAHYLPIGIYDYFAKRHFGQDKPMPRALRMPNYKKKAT
# pIC50: negative log10 of molar concentration; output just the value

Challenge: Which pIC50 is listed for `Cc1cc(C)c(OCC(=O)N/N=C/c2ccc(O)cc2O)c(Br)c1` ?
Response given: 4.64

---

molecular target: 17-beta-hydroxysteroid dehydrogenase type 2 (Homo sapiens, UniProt P37059); assay: Inhibition of 17beta-HSD2 (unknown origin) expressed in HEK293 cells lysate; format: cell-free
test readout: pIC50
# pIC50: negative log10 of molar concentration; output just the value

Examples with their reported pIC50 follow.
{"structure": "Cc1ccc(NS(=O)(=O)c2cccc(Br)c2)cc1O", "pIC50": 5.20}
{"structure": "O=C(CSc1nccc(O)n1)Nc1cccc2nsnc12", "pIC50": 5.82}
{"structure": "Cc1cc(S(=O)(=O)Nc2cccc(O)c2)c(C)cc1Cl", "pIC50": 6.00}

Challenge: Observed pIC50 on 17-beta-hydroxysteroid dehydrogenase type 2 (Homo sapiens, UniProt P37059) for `Clc1ccc(Cl)c(-c2ccc(CNc3nn[nH]n3)o2)c1` , please.
Response given: 4.48

Challenge: Observed pIC50 on 17-beta-hydroxysteroid dehydrogenase type 2 (Homo sapiens, UniProt P37059) for `COc1cc(C)c(S(=O)(=O)Nc2cccc(O)c2)cc1C` , please.
Response given: 5.16

Challenge: Observed pIC50 on 17-beta-hydroxysteroid dehydrogenase type 2 (Homo sapiens, UniProt P37059) for `COc1ccc(S(=O)(=O)Nc2ccc(O)c3c2CCCC3)cc1` , please.
Response given: 5.02

Challenge: Observed pIC50 on 17-beta-hydroxysteroid dehydrogenase type 2 (Homo sapiens, UniProt P37059) for `Cc1cc(C)c(OCC(=O)N/N=C/c2ccc(O)cc2O)c(Br)c1` , please.
Response given: 5.39

Challenge: Observed pIC50 on 17-beta-hydroxysteroid dehydrogenase type 2 (Homo sapiens, UniProt P37059) for `O=S(=O)(Nc1ccc(O)c(Cl)c1)c1ccc(F)cc1` , please.
Response given: 5.52

Challenge: Observed pIC50 on 17-beta-hydroxysteroid dehydrogenase type 2 (Homo sapiens, UniProt P37059) for `COc1ccc(S(=O)(=O)Nc2cccc(O)c2)c2c1CCCC2` , please.
Response given: 4.82

Challenge: Observed pIC50 on 17-beta-hydroxysteroid dehydrogenase type 2 (Homo sapiens, UniProt P37059) for `O=S(=O)(Nc1cccc(O)c1)c1ccc(Br)cc1` , please.
Response given: 5.31

Challenge: Observed pIC50 on 17-beta-hydroxysteroid dehydrogenase type 2 (Homo sapiens, UniProt P37059) for `Cc1ccc(NS(=O)(=O)c2cccc(C(F)(F)F)c2)cc1O` , please.
Response given: 5.15

Challenge: Observed pIC50 on 17-beta-hydroxysteroid dehydrogenase type 2 (Homo sapiens, UniProt P37059) for `Cc1cc(C)c(S(=O)(=O)Nc2cccc(O)c2)cc1C` , please.
Response given: 5.48

Challenge: Observed pIC50 on 17-beta-hydroxysteroid dehydrogenase type 2 (Homo sapiens, UniProt P37059) for `CC(C)(C)c1ccc(S(=O)(=O)Oc2ccccc2O)cc1` , please.
Response given: 6.62
